Kindly state pIC50 for each of the entries shown.
# TESTED_ON: HCV NS3/4A protease complex (Hepatitis C virus genotype 1a, UniProt P27958, C1454S/C1711G)
# Sequence (P27958 1027-1711, stated change not applied): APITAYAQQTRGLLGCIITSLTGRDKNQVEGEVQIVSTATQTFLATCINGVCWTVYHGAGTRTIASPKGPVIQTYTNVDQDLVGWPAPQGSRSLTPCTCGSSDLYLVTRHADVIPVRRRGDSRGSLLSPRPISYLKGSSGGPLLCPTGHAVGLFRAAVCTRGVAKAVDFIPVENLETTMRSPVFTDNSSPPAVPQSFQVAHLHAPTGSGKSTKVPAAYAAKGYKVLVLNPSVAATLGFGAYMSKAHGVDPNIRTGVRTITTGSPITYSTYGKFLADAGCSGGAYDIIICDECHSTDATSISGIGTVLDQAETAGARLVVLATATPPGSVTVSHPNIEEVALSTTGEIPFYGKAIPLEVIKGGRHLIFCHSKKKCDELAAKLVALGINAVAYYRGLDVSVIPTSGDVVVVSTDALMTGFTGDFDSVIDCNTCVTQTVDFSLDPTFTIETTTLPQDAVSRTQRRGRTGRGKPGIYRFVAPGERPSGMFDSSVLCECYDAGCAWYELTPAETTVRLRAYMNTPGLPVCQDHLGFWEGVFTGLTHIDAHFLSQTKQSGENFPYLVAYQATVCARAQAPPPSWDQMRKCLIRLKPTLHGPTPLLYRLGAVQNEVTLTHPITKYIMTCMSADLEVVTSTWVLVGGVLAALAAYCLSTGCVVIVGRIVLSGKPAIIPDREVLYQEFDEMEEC
# Sequence (P27958 1027-1711, stated change not applied): as above
# TEST_SUMMARY: Recombinant HCV NS3/4A protease complex FRET peptide assay (strain not stated)
# Type: biochemical
# PROTOCOL_CONDITIONS: IC50, NS3/4A protease enzyme assay, strain not stated; activity ranges
pIC50: −log10 of the molar value.

// field: pIC50; key: C=CCC[C@](C)(NC(=O)[C@@H]1C[C@@H](Oc2cc(-c3ccccc3)nc3cc(OC)ccc23)CN1C(=O)C(NC(=O)OC(C)(C)C)C(C)(C)C)C(=O)NS(=O)(=O)c1ccc(C)cc1 (stereo partly shown) [Compound 37] ; value = > 7.30

// field: pIC50; key: C=CC1C[C@]1(NC(=O)[C@@H]1C[C@@H](Oc2cc(-c3ccccc3)nc3cc(OC)ccc23)CN1C(=O)[C@@H](NC(=O)OC(C)(C)C)C(C)(C)C)C(=O)NS(=O)(=O)C(C)C (stereo partly shown) [Compound 27] ; value = > 7.30

// field: pIC50; key: COc1ccc2c(O[C@@H]3C[C@@H](C(=O)NC4(C(=O)NS(=O)(=O)C5CC5)CC45CCC5)N(C(=O)[C@@H](NC(=O)OC(C)(C)C)C(C)C)C3)cc(-c3ccccc3)nc2c1 (stereo partly shown) [Compound 138] ; value = > 5.30

// field: pIC50; key: C=CC1C[C@]1(NC(=O)[C@@H]1C[C@@H](Oc2cc(-c3ccccc3)nc3cc(OC)ccc23)CN1C(=O)[C@@H](NC(=O)O[C@H]1CCOC1)C(C)(C)C)C(=O)NS(=O)(=O)C1CC1 (stereo partly shown) [Compound 18] ; value = > 7.30

// field: pIC50; key: C=C[C@@H]1C[C@]1(NC(=O)C1CC(Oc2cc(-c3ccccc3)nc3cc(OC)ccc23)CN1C(=O)[C@@H](NC(=O)C(=O)OC)C(C)(C)C)C(=O)NS(=O)(=O)C1CC1 (stereo partly shown) [Compound 121] ; value = > 7.30

// field: pIC50; key: C=C[C@@H]1C[C@]1(NC(=O)C1C[C@@H](Oc2cc(-c3ccccc3)nc3cc(OC)ccc23)CN1C(=O)[C@@H](NC(=O)CO)C(C)(C)C)C(=O)NS(=O)(=O)C1CC1 (stereo partly shown) [Compound 102] ; value = > 7.30

// field: pIC50; key: C=CC1CC1(NC(=O)OC(C)(C)C)C(=O)N1C[C@H](Oc2cc(-c3ccccc3)nc3cc(OC)ccc23)CC1C(=O)N[C@]1(C(=O)NS(=O)(=O)C2CC2)C[C@H]1C=C (stereo partly shown) [Compound 97] ; value = > 6.30

// field: pIC50; key: C=CC1C[C@]1(NC(=O)[C@@H]1C[C@@H](Oc2cc(-c3ccccc3)nc3cc(OC)ccc23)CN1C(=O)[C@@H](NC(=O)OC(C)(C)C)C(C)(C)C)C(=O)NS(=O)(=O)c1ccc(Br)cc1 (stereo partly shown) [Compound 17] ; value = > 6.30

// field: pIC50; key: C=CC1C[C@]1(NC(=O)[C@@H]1C[C@@H](Oc2cc(-c3ccccc3)nc3cc(OC)ccc23)CN1C(=O)[C@@H](NC(=O)OC(C)(C)C)C(C)(C)C)C(=O)NS(=O)(=O)c1ccccc1[N+](=O)[O-] (stereo partly shown) [Compound 51] ; value = > 7.30

// field: pIC50; key: C=C[C@@H]1C[C@]1(NC(=O)C1CC(Oc2cc(-c3ccccc3)nc3cc(OC)ccc23)CN1C(=O)[C@@H](NC(=O)OCc1ccccc1)C(C)(C)C)C(=O)NS(=O)(=O)C1CC1 (stereo partly shown) [Compound 114] ; value = > 7.30

---

# TESTED_ON: HCV NS3/4A protease complex (Hepatitis C virus genotype 1a, UniProt P27958, C1454S/C1711G)
# TEST_SUMMARY: Recombinant HCV NS3/4A protease complex FRET peptide assay (strain not stated)
# Format: biochemical
# PROTOCOL_CONDITIONS: IC50, NS3/4A protease enzyme assay, strain not stated; activity ranges
pIC50: −log10 of the molar value.
OBSERVATION_TYPE: pIC50

// field: pIC50; key: C=CC1C[C@]1(NC(=O)[C@@H]1C[C@@H](Oc2cc(-c3ccccc3)nc3cc(OC)ccc23)CN1C(=O)[C@@H](NC(=O)OC(C)(C)C)C1CCCC1)C(=O)NS(=O)(=O)C1CC1 (stereo partly drawn) [Compound 29] ; value = > 7.30

// field: pIC50; key: CCC1C[C@]1(NC(=O)[C@@H]1C[C@@H](Oc2cc(-c3ccccc3)nc3cc(OC)ccc23)CN1C(=O)[C@@H](NC(=O)OC(C)(C)C)C(C)C)C(=O)NS(C)(=O)=O (stereo partly drawn) [Compound 1] ; value = > 6.30

// field: pIC50; key: C=C1C[C@]1(NC(=O)[C@@H]1C[C@@H](Oc2cc(-c3ccccc3)nc3cc(OC)ccc23)CN1C(=O)C(NC(=O)OC(C)(C)C)C(C)(C)C)C(=O)NS(=O)(=O)c1ccc(F)cc1 (stereo partly drawn) [Compound 49] ; value = > 7.30

---

# Tested on: HCV replicon in Huh7 cells
# TEST_SUMMARY: HCV replicon cell-based assay
# Parameters: species or system HCV strain 1B
# PROTOCOL_CONDITIONS: Hepatitis C virus, Huh-7, 96 h; HCV replicon, Huh7 cells, 4 days; activity ranges; read-out: EC50
# Procedure: An HCV replicon whole cell system was established as described by Lohmann V, Korner F, Koch J, Herian U, Theilmann L, Bartenschlager R., Science 285(5424):110-3 (1999). […] Huh7 cells, constitutively expressing the HCV replicon, were grown in DMEM containing 10% FCS (Fetal calf serum) and 1 mg/ml G418 (Gibco-BRL). […] The toxicity of compound (CC50) was determined by adding 1/10th volume of alamar Blue to the media incubating the cells. […]
pEC50: −log10 of the molar value.
Kindly state pEC50 for each of the entries shown.

// field: pEC50; key: C=C[C@@H]1C[C@]1(NC(=O)C1C[C@@H](Oc2cc(-c3ccccc3)nc3cc(OC)ccc23)CN1C(=O)[C@@H](Nc1ccncc1[N+](=O)[O-])C(C)(C)C)C(=O)NS(=O)(=O)C1CC1 (stereo partly shown) ; value = > 4.30

// field: pEC50; key: C=C[C@@H]1C[C@]1(NC(=O)C1CC(Oc2cc(-c3ccccc3)nc3cc(OC)ccc23)CN1C(=O)[C@@H](NC(=O)OCc1ccccc1)C(C)(C)C)C(=O)NS(=O)(=O)C1CC1 (stereo partly shown) ; value = > 7.30

// field: pEC50; key: C=CC1C[C@]1(NC(=O)[C@@H]1C[C@@H](Oc2cc(-c3ccccc3)nc3cc(OC)ccc23)CN1C(=O)[C@@H](NC(=O)OC(C)(C)C)C(C)(C)C)C(=O)NS(=O)(=O)c1ccc(Br)cc1 (stereo partly shown) ; value = > 6.30

// field: pEC50; key: CCC1C[C@]1(NC(=O)[C@@H]1C[C@@H](Oc2cc(-c3ccccc3)nc3cc(OC)ccc23)CN1C(=O)[C@@H](NC(=O)CC1CC1)C(C)C)C(=O)NS(=O)(=O)C1CC1 (stereo in doubt) ; value = > 7.30

// field: pEC50; key: C=CC1C[C@]1(NC(=O)[C@@H]1C[C@@H](Oc2cc(-c3ccccc3)nc3cc(OC)ccc23)CN1C(=O)[C@@H](NC(=O)OC(C)(C)C)C(C)(C)C)C(=O)NS(=O)(=O)C1CCC1 (stereo in doubt) ; value = > 7.30

// field: pEC50; key: C=CC1C[C@]1(NC(=O)[C@@H]1C[C@@H](Oc2cc(-c3ccccc3)nc3cc(OC)ccc23)CN1C(=O)[C@@H](NC(=O)OC(C)(C)C)C1CCCC1)C(=O)NS(=O)(=O)C1CC1 (stereo partly shown) ; value = > 7.30

// field: pEC50; key: C=C[C@@H]1C[C@]1(NC(=O)C1C[C@@H](Oc2cc(-c3ccccc3)nc3cc(OC)ccc23)CN1C(=O)[C@@H](NC(=O)COc1ccc(F)cc1)C(C)(C)C)C(=O)NS(=O)(=O)C1CC1 (stereo partly shown) ; value = > 6.30

// field: pEC50; key: C=CC1C[C@]1(NC(=O)[C@@H]1C[C@@H](Oc2cc(-c3ccccc3)nc3cc(OC)ccc23)CN1C(=O)[C@@H](NC(=O)N(CCC(F)(F)F)CC1CC1)C(C)(C)C)C(=O)NS(=O)(=O)C1CC1 (stereo in doubt) ; value = > 6.30

// field: pEC50; key: C=CC1C[C@]1(NC(=O)[C@@H]1C[C@@H](Oc2cc(-c3ccccc3)nc3cc(OC)ccc23)CN1C(=O)[C@@H](NC(=O)OC(C)(C)C)C(C)(C)C)C(=O)NS(=O)(=O)C(C)C (stereo partly shown) ; value = > 6.30

// field: pEC50; key: C=CC1C[C@]1(NC(=O)[C@@H]1C[C@@H](Oc2cc(-c3ccccc3)nc3cc(OC)ccc23)CN1C(=O)[C@@H](NC(=O)OC(C)(C)C)C(C)C)C(=O)NS(=O)(=O)C(C)C (stereo partly shown) ; value = > 7.30

// field: pEC50; key: C=CC1C[C@]1(NC(=O)[C@@H]1C[C@@H](Oc2cc(-c3ccccc3)nc3cc(OC)ccc23)CN1C(=O)[C@@H](NC(=O)OC(C)(C)C)C(C)(C)C)C(=O)NS(=O)(=O)c1cccc([N+](=O)[O-])c1 (stereo partly shown) ; value = > 4.30

// field: pEC50; key: C=COC(=O)N[C@H](C(=O)N1C[C@H](Oc2cc(-c3ccccc3)nc3cc(OC)ccc23)CC1C(=O)N[C@]1(C(=O)NS(=O)(=O)C2CC2)C[C@H]1C=C)C(C)(C)C (stereo partly shown) ; value = > 7.30

// field: pEC50; key: C=CC1CC1(NC(=O)C1CC(Oc2cc(-c3ccccc3)nc3cc(OC)ccc23)CN1C(=O)C(NC(=O)C1C2CC1C2)C(C)(C)C)C(=O)NS(=O)(=O)C1CC1 (stereo not shown) ; value = > 7.30

// field: pEC50; key: C=CCC[C@](C)(NC(=O)[C@@H]1C[C@@H](Oc2cc(-c3ccccc3)nc3cc(OC)ccc23)CN1C(=O)C(NC(=O)OC(C)(C)C)C(C)(C)C)C(=O)NS(=O)(=O)c1ccc(C#N)cc1 (stereo partly shown) ; value = > 6.30

// field: pEC50; key: C=C[C@@H]1C[C@]1(NC(=O)C1C[C@@H](Oc2cc(-c3ccccc3)nc3cc(OC)ccc23)CN1C(=O)[C@@H](NC(=O)COC(C)=O)C(C)(C)C)C(=O)NS(=O)(=O)C1CC1 (stereo partly shown) ; value = > 6.30

// field: pEC50; key: C=C[C@@H]1C[C@]1(NC(=O)C1CC(Oc2cc(-c3ccccc3)nc3cc(OC)ccc23)CN1C(=O)[C@@H](NC(=O)OCCF)C(C)(C)C)C(=O)NS(=O)(=O)C1CC1 (stereo partly shown) ; value = > 7.30

// field: pEC50; key: C=CC1C[C@]1(NC(=O)[C@@H]1C[C@@H](Oc2cc(-c3ccccc3)nc3cc(OC)ccc23)CN1C(=O)C(NC(=O)OC(C)(C)C)C(C)(C)C)C(=O)NS(=O)(=O)c1ccc(C(C)(C)C)cc1 (stereo partly shown) ; value = > 6.30

// field: pEC50; key: C=CC1C[C@]1(NC(=O)[C@@H]1C[C@@H](Oc2cc(-c3ccccc3)nc3cc(OC)ccc23)CN1C(=O)[C@@H](NC(=O)OC(C)(C)C)C(C)(C)C)C(=O)NS(=O)(=O)c1ccccc1[N+](=O)[O-] (stereo partly shown) ; value = > 6.30

// field: pEC50; key: C=C[C@@H]1C[C@]1(NC(=O)C1C[C@@H](Oc2cc(-c3ccccc3)nc3cc(OC)ccc23)CN1C(=O)[C@@H](NC(=O)CCC(=O)O)C(C)(C)C)C(=O)NS(=O)(=O)C1CC1 (stereo partly shown) ; value = > 6.30

// provenance: patent US6872805B2
